# STUDY_TARGET: T1, human DR5 ECD-Avi-his (human, UniProt O14763 56-207)
# T1 construct: also called recombinant human DR5 (monomeric His-Avi fusion protein); monomeric human DR5
# TEST_DESCRIPTION: SPR, rabbit IgG captured by anti rabbit, monomeric DR5 injected
pKd values for the binders below.
// pKd is dimensionless: -log10 of concentration (M)

Past entries and their recorded results:
>  <BINDER>
DR5TAA-0005 (antibody, V domains shown, rabbit IgG; also called 039; clone 039) VH: QSLEESGGRLVTPGTPLTLTCTASGFSLSSAYMSWVRQAPGKGLEWIGYIYSGSGSTWYASWVKGRFTISKTSTTVDLKITSPTTEDTATYFCARGYSTMGDLWGPGTLVTVSS VL: QVLTQTPSPVSAAVGGTVTINCQASQSVYNNRLAWYQQKPGQPPKLLIYLASTLASGVPSRFKGSGSGTQFTLTISDLQCDDAATYYCAGGYSGNINAFGGGTEVVVKG

>  <PROPERTY_NAME>
pKd

>  <EXPERIMENTAL_RESULT>
7.88

$$$$
>  <BINDER>
DR5TAA-0006 (antibody, V domains shown, rabbit IgG; also called 058; clone 058) VH: QSLEESGGRLVTPGTPLTLTCTASGFSLSSNHMSWVRQAPGKGLEWIGYIYAGSGSAYYASWAKGRFTISRTSTTVDLKMTSLTTEDTATYFCAGDAGSSYWEFNLWGPGTLVTVSS VL: LVMTQTPSSTSEPVGGTVTIKCQASQSIGSSLSWYQQKPGQPPKLLIYHASTLASGVPSRFSGSRSGIQTTLTISGVQCDDAATYYCLGVADARRDDGFAFGGGTEVVVKG

>  <PROPERTY_NAME>
pKd

>  <EXPERIMENTAL_RESULT>
8.23

$$$$

Prompt line: Specify pKd for DR5TAA-0010 (antibody, V domains shown, rabbit IgG; also called 481; clone 481) VH: QSLEESGGRLVKPDETLTLTCTVSGFSLSSNAISWVRQAPGMGLEWIGIIGSSGYTYYASWAKGRFTVSKTSTTVDLEIASPTTEDTATYFCARGYSGASDYSFNLWGPGTLVTVSS VL: AYDMTQTPDSVEVAVGGTVTIKCQASQTIGDALAWYQQKPGQRPNLLIYRTSTLASGVPSRFSGSGSGTHFTLTISGVECADAATYYCQQGATYNNVLNTFGGGTEVVVKG and stop.
Response line: 7.80
